Biological target: HCV NS5B (Hepatitis C virus genotype 1b)
Construct: The protein was expressed with an 18 amino acid C-terminal truncation to enhance the solubility; made in house; host or cells: E. coli BL21 (DE3)
Test: HCV NS5B RdRp enzyme assay (standard / modified)
Type: biochemical
Procedure: HCV NS5B RdRp cloning, expression, and purification. The cDNA encoding the NS5B protein of HCV, genotype 1b, was cloned into the pET21a expression vector. The protein was expressed with an 18 amino acid C-terminal truncation to enhance the solubility. […] Standard HCV NS5B RdRp enzyme assay. […] Plates were read on a Packard Top Count NXT after >1 hr incubation at room temperature. […] IC50 values for compounds were determined using seven different [I]. […]
pIC50: −log10 of the molar value.

{"Record smiles": "COc1ccc2c(c1)C=C(c1c(C(=O)N3CC4CCC(C3)N4C)cnn1C)Cn1c-2c(C2CCCCC2)c2ccc(C(=O)NS(=O)(=O)C(C)C)cc21", "pIC50": "6.30 to 9.00"}
{"Record smiles": "COc1ccc2c(c1)C=C(c1c(C(=O)N3C4CCC3CN(C)C4)cnn1C)Cn1c-2c(C2CCCCC2)c2ccc(C(=O)NS(=O)(=O)C3CC3)cc21", "pIC50": "6.30 to 9.00"}
{"Record smiles": "COc1ccc2c(c1)C=C(c1c(C(=O)N3C4CCC3CN(C)C4)cnn1C)Cn1c-2c(C2CCCCC2)c2ccc(C(=O)NS(=O)(=O)C3CCC3)cc21", "pIC50": "6.30 to 9.00"}
{"Record smiles": "COc1ccc2c(c1)C=C(c1c(C(=O)N3C4COCC3COC4)cnn1C)Cn1c-2c(C2CCCCC2)c2ccc(C(=O)NS(=O)(=O)N3CCOCC3)cc21", "pIC50": "6.30 to 9.00"}
{"Record smiles": "CCn1nc(C)c(C(=O)N2CC3CCC(C2)N3C)c1C1=Cc2cc(OC)ccc2-c2c(C3CCCCC3)c3ccc(C(=O)NS(=O)(=O)C(C)C)cc3n2C1", "pIC50": "6.30 to 9.00"}
{"Record smiles": "COc1ccc2c(c1)C=C(c1c(C(=O)N3[C@@H]4CC[C@H]3CN(C)C4)cnn1C(C)C)Cn1c-2c(C2CCCCC2)c2ccc(C(=O)NS(=O)(=O)CC(C)C)cc21", "pIC50": "6.30 to 9.00"}
{"Record smiles": "COc1ccc2c(c1)C=C(c1c(C(=O)N3C4CCC3CN(C)C4)cnn1CC(F)(F)F)Cn1c-2c(C2CCCCC2)c2ccc(C(=O)NS(=O)(=O)C(C)C)cc21", "pIC50": "6.30 to 9.00"}

###

Target: HCV NS5B (Hepatitis C virus genotype 1b, UniProt Q9WMX2)
Construct: The protein was expressed with an 18 amino acid C-terminal truncation to enhance the solubility; made in house; host or cells: E. coli BL21 (DE3)
Sequence (Q9WMX2 2420-2992): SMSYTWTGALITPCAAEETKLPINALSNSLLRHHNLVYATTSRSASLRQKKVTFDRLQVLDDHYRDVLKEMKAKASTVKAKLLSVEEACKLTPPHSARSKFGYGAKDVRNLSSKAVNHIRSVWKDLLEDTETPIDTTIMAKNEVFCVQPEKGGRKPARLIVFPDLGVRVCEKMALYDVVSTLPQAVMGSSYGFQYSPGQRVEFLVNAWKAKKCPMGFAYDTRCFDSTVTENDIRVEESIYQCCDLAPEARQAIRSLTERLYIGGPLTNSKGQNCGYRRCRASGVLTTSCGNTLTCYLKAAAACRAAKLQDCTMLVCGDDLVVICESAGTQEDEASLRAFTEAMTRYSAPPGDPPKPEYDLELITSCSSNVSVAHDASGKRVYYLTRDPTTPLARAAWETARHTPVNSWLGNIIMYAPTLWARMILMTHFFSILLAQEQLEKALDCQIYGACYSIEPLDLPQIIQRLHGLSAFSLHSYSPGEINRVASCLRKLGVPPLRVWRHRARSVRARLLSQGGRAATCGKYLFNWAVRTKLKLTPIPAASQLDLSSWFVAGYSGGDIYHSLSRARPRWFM
Assay: HCV NS5B RdRp enzyme assay (standard / modified)
Format: biochemical
Details: HCV RdRp genotype 1b enzyme; read-out: IC50
pIC50: −log10 of the molar value.
Each item that follows carries a reported pIC50.

{"Compound": "COc1ccc2c(c1)C=C(c1c(C(=O)N3CCOCC3)c(C)nn1C)Cn1c-2c(C2CCCCC2)c2ccc(C(=O)NS(=O)(=O)N(C)C)cc21", "pIC50": "6.30 to 9.00"}
{"Compound": "COc1ccc2c(c1)C=C(c1c(C(=O)N3CCN(C)CC3)c(C)nn1C(C)C)Cn1c-2c(C2CCCCC2)c2ccc(C(=O)NS(=O)(=O)C(C)C)cc21", "pIC50": "6.30 to 9.00"}
{"Compound": "COc1ccc2c(c1)C=C(c1c(C(=O)N3C[C@@H](C)O[C@@H](C)C3)cnn1C)Cn1c-2c(C2CCCCC2)c2ccc(C(=O)NS(=O)(=O)C3CCC3)cc21", "pIC50": "6.30 to 9.00"}
{"Compound": "COc1ccc2c(c1)C=C(c1c(C(=O)N3CCCC(N(C)C)C3)cnn1C)Cn1c-2c(C2CCCCC2)c2ccc(C(=O)NS(=O)(=O)C3CCCC3)cc21 (centres unmarked)", "pIC50": "6.30 to 9.00"}
{"Compound": "COC[C@@H]1CN(C(=O)c2cnn(C(C)C)c2C2=Cc3cc(OC)ccc3-c3c(C4CCCCC4)c4ccc(C(=O)NS(=O)(=O)CC(C)C)cc4n3C2)CCO1", "pIC50": "6.30 to 9.00"}
{"Compound": "CCN1C[C@@H]2C[C@H]1CN2C(=O)c1cnn(C)c1C1=Cc2cc(OC)ccc2-c2c(C3CCCCC3)c3ccc(C(=O)NS(=O)(=O)C4CCCC4)cc3n2C1", "pIC50": "6.30 to 9.00"}
{"Compound": "COc1ccc2c(c1)C=C(c1c(C(=O)N(CCN(C(C)C)C(C)C)C(C)C)cnn1C)Cn1c-2c(C2CCCCC2)c2ccc(C(=O)NS(=O)(=O)C(C)C)cc21", "pIC50": "6.30 to 9.00"}
{"Compound": "CCN1C[C@@H]2C[C@H]1CN2C(=O)c1cnn(C)c1C1=Cc2cc(OC)ccc2-c2c(C3CCCCC3)c3ccc(C(=O)NS(=O)(=O)C4CCC4)cc3n2C1", "pIC50": "6.30 to 9.00"}
{"Compound": "COc1ccc2c(c1)C=C(c1c(C(=O)N3CCCN(C)CC3)cnn1C)Cn1c-2c(C2CCCCC2)c2ccc(C(=O)NS(=O)(=O)N3CCOCC3)cc21", "pIC50": "> 7.70"}
{"Compound": "COc1ccc2c(c1)C=C(c1c(C(=O)O)ccn1C(C)C)Cn1c-2c(C2CCCCC2)c2ccc(C(=O)NS(=O)(=O)C(C)C)cc21", "pIC50": "6.30 to 9.00"}
{"Compound": "COC(=O)c1c(C)nn(C)c1C1=Cc2cc(OC)ccc2-c2c(C3CCCCC3)c3ccc(C(=O)NS(=O)(=O)CC(C)C)cc3n2C1", "pIC50": "6.30 to 9.00"}
{"Compound": "CCC(C)S(=O)(=O)NC(=O)c1ccc2c(C3CCCCC3)c3n(c2c1)CC(c1c(C(=O)N2CCCC(N(C)C)C2)cnn1C)=Cc1cc(OC)ccc1-3 (centres unmarked)", "pIC50": "6.30 to 9.00"}
{"Compound": "COC[C@@H]1CN(C(=O)c2cnn(CC(F)(F)F)c2C2=Cc3cc(OC)ccc3-c3c(C4CCCCC4)c4ccc(C(=O)NS(=O)(=O)C(C)C)cc4n3C2)CCO1", "pIC50": "6.30 to 9.00"}
{"Compound": "COc1ccc2c(c1)C=C(c1ccsc1C(=O)N1CCOCC1)Cn1c-2c(C2CCCCC2)c2ccc(C(=O)NS(=O)(=O)N(C)C)cc21", "pIC50": "6.30 to 9.00"}
{"Compound": "COC[C@@H]1CN(C(=O)c2c(C(F)(F)F)nn(C)c2C2=Cc3cc(OC)ccc3-c3c(C4CCCCC4)c4ccc(C(=O)NS(=O)(=O)C(C)C)cc4n3C2)CCO1", "pIC50": "6.30 to 9.00"}
{"Compound": "COc1ccc2c(c1)C=C(c1ocnc1C(=O)N1CCOCC1)Cn1c-2c(C2CCCCC2)c2ccc(C(=O)NS(=O)(=O)C(C)C)cc21", "pIC50": "6.30 to 9.00"}
{"Compound": "CCN(C(=O)c1cnn(C)c1C1=Cc2cc(OC)ccc2-c2c(C3CCCCC3)c3ccc(C(=O)NS(=O)(=O)C4CCCC4)cc3n2C1)C(C)C", "pIC50": "6.30 to 9.00"}
{"Compound": "COc1ccc2c(c1)C=C(c1sccc1C(=O)O)Cn1c-2c(C2CCCCC2)c2ccc(C(=O)NS(=O)(=O)C(C)C)cc21", "pIC50": "6.30 to 9.00"}
{"Compound": "COc1ccc2c(c1)C=C(c1c(C(=O)N3C[C@@H](C)N(C)[C@@H](C)C3)cnn1C)Cn1c-2c(C2CCCCC2)c2ccc(C(=O)NS(=O)(=O)N3CCOCC3)cc21", "pIC50": "6.30 to 9.00"}
{"Compound": "COc1ccc2c(c1)C=C(c1c(C(=O)N3C[C@@H](C)N(C)[C@@H](C)C3)cnn1C(C)(C)C)Cn1c-2c(C2CCCCC2)c2ccc(C(=O)NS(=O)(=O)C(C)C)cc21", "pIC50": "6.30 to 9.00"}
{"Compound": "COc1ccc2c(c1)C=C(c1c(C(=O)N(C)C)cnn1C)Cn1c-2c(C2CCCCC2)c2ccc(C(=O)NS(=O)(=O)C(C)C)cc21", "pIC50": "6.30 to 9.00"}
{"Compound": "CCOC(=O)c1cnn(C)c1C1=Cc2cc(OC)ccc2-c2c(C3CCCCC3)c3ccc(C(=O)O)cc3n2C1", "pIC50": "6.30 to 9.00"}
{"Compound": "COc1ccc2c(c1)C=C(c1c(C(=O)N3C[C@@H](C)N(C)[C@@H](C)C3)cnn1CC(F)(F)F)Cn1c-2c(C2CCCCC2)c2ccc(C(=O)NS(=O)(=O)C(C)C)cc21", "pIC50": "6.30 to 9.00"}
{"Compound": "COc1ccc2c(c1)C=C(c1c(C(=O)O)c(C)nn1C)Cn1c-2c(C2CCCCC2)c2ccc(C(=O)NS(=O)(=O)CC(C)C)cc21", "pIC50": "6.30 to 9.00"}
{"Compound": "COc1ccc2c(c1)C=C(c1c(C(=O)N3CCOCC3)cnn1C(C)C)Cn1c-2c(C2CCCCC2)c2ccc(C(=O)O)cc21", "pIC50": "6.30 to 9.00"}
{"Compound": "COc1ccc2c(c1)C=C(c1c(C(=O)N3CC4CCC(C3)O4)cnn1C(C)C)Cn1c-2c(C2CCCCC2)c2ccc(C(=O)NS(=O)(=O)C(C)C)cc21", "pIC50": "6.30 to 9.00"}
